Entry source: patent US20110129542A1

Target: Mouse 11-β-HSD1 (Mus musculus)
Sequence (P50172 whole entry): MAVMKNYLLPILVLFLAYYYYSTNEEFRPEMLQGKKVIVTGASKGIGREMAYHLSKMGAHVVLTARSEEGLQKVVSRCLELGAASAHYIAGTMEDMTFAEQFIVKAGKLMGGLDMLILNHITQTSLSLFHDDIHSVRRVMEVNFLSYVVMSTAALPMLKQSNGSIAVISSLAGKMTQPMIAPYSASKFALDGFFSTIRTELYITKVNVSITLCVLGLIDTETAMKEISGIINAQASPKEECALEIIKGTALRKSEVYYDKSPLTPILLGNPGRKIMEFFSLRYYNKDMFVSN
Answer each item with its documented IC50.
Put your answer as a value accompanied by its unit after it.

Example compounds with recorded IC50:
# IC50 of CC(C)(C)c1ccc(S(=O)(=O)N2CCCC(O)CC2)cc1 (stereo not drawn) = 0.629 µM

# IC50 of COC1(C)CCCN(S(=O)(=O)c2ccc(C(C)(C)C)cc2)CC1 (stereo not drawn) = 0.057 µM

# IC50 of "CC(C)(C)c1ccc(S(=O)(=O)N2CCCNCC2)cc1" = 2.3 µM

Can you give me IC50 for all of these, one by one?
1. O=S(=O)(c1ccc(Cl)cc1)N1CCCC(O)(c2ccccc2)CC1 (stereo not drawn)
2. COc1ccc(S(=O)(=O)N2CCCC(O)(c3ccccc3)CC2)cc1 (stereo not drawn)
3. CC(C)(C)c1ccc(S(=O)(=O)N2CCCN(C3CCCC3)CC2)cc1

Ans:
1: 2.72 µM; 2: 1.98 µM; 3: 0.263 µM

* * *

Observed log10(IC50) values for Human 11-β-HSD1 (Homo sapiens, UniProt P28845) are listed in what follows.
All values: log10 IC50 [nM].

Example molecules with recorded log10(IC50):
# log10(IC50) of COC1(C)CCCN(S(=O)(=O)c2ccc(C(C)(C)C)cc2)CC1 (stereo not drawn) [Compound 18] = 0.48

# log10(IC50) of CC(=O)c1ccc(S(=O)(=O)N2CCCC(C)(O)CC2)cc1 (stereo not drawn) [Compound 29] = 3.72

# log10(IC50) of CC(C)(C)c1ccc(S(=O)(=O)N2CCCC(O)CC2)cc1 (stereo not drawn) [Compound 11] = 2.67

# log10(IC50) of CC(C)(C)c1ccc(S(=O)(=O)N2CCCNCC2)cc1 [Compound 45] = 3.57

# log10(IC50) of CC(C)(C)c1ccc(S(=O)(=O)N2CCCN(C3CC4CCC3C4)CC2)cc1 (stereo not drawn) [Compound 47] = 1.28

New cases:
# log10(IC50) of COc1ccc(S(=O)(=O)N2CCC=C(c3ccccc3)CC2)cc1 [Compound 34] = 1.76
